Target: WDR5_(WD40), as used in the ITC (human)
Test: ITC
pKd: −log10 of the molar value.
value kind: pKd

ARTKQTARKSTGGKA (modifications not checked) [unmodified H3 tail peptide of the ITC (H3K4unmodQ5unmod)] ... 4.69
